Below: a set of entries, each annotated with reported phosphorylation enrichment.
# Test system: AncSZ
# procedure.details: phosphorylation enrichment, bacterial display (enrichment ratio); higher = better substrate or ligand; peptides without Tyr show the background;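 note: 11-residue human phosphosite peptides and single-mutation variants displayed on the E. coli surface, counted by deep sequencing, each peptide's frequency after selection divided by its frequency in the unselected input library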;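 note: frequency after pTyr selection over input frequency; kinase dosed for 20-30% of maximal phosphorylation in three min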
Output: the number by itself.

As a guide, the following entries are already answered.
[[record]]
monomer_sequence = "ALAAPYVLYPS [CEFIP_Y1332_G1337S]"
observed_value = 0.786

[[record]]
monomer_sequence = "EYLQKYKGFKI [SYNE1_Y6953]"
observed_value = 0.733

[[record]]
monomer_sequence = "IGERTYGQVYK [CDK13_Y716_G714R]"
observed_value = 0.507

[[record]]
monomer_sequence = "PELINCHQHNS [BTK_Y361_Y361C]"
observed_value = 0.938

[[record]]
monomer_sequence = "RASDFYSQQMA [GBP6_Y334_A331S_YF]"
observed_value = 0.755

[[record]]
monomer_sequence = "DERQPYVHMNG [IGF1R_Y1346_A1347V]"
observed_value = 0.696


q: Can you look up the measured phosphorylation enrichment of LVVFEYMRHGD [NTRK1_Y591_M587V] for me?
a: 0.875

q: Also TMEDSYRKQVV [KRAS_Y40_I36M] , if possible.
a: 0.69

---

# assay.target: Jak2 (UniProt O60674)
# Sequence (O60674 whole entry, looked up): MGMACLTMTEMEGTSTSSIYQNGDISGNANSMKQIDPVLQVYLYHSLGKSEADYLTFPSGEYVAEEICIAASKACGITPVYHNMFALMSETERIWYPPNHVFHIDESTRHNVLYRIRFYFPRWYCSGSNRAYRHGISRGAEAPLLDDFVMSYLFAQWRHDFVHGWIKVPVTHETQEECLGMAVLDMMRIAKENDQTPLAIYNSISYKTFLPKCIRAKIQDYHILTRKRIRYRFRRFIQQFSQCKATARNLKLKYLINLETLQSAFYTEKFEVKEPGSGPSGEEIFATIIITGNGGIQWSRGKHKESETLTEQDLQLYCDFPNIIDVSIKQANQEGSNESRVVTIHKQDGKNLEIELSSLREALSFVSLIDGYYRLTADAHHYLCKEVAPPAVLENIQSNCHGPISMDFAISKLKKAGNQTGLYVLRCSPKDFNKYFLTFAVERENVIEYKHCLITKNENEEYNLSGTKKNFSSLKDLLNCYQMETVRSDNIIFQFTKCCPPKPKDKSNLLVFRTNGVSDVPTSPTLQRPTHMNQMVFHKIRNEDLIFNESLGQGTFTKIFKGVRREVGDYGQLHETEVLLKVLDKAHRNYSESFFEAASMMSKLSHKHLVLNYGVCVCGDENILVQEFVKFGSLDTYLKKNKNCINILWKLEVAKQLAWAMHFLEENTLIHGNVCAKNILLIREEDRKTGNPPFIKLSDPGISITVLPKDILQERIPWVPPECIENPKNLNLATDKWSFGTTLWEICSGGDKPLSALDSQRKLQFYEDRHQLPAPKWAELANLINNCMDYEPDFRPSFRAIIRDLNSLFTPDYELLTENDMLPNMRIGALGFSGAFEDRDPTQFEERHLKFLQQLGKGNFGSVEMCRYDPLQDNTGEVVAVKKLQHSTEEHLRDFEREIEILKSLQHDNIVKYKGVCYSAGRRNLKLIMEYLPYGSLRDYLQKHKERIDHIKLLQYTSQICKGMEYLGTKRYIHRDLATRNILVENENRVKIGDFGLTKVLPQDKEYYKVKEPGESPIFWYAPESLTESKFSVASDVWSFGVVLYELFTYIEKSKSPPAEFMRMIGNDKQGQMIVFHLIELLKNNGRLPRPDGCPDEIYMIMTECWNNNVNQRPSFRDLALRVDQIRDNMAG
# procedure.details: phosphorylation enrichment, bacterial display (enrichment ratio); higher = better substrate or ligand; peptides without Tyr show the background
measurement.label: phosphorylation enrichment
Write the value as a bare number.

Some solved cases for reference:
[[record]]
monomer_sequence = "ENGPYYASYPP [GDAP2_Y488_T489A]"
observed_value = 0.662

[[record]]
monomer_sequence = "CTTIHYHFMCN [TP53_Y234_N235H_YF]"
observed_value = 0.902

[[record]]
monomer_sequence = "TIMTNYNPNYC [ALK_Y1092_D1091N]"
observed_value = 0.639

[[record]]
monomer_sequence = "MKGDYYRSLAE [YWHAG_Y131_Y133S]"
observed_value = 1.14

[[record]]
monomer_sequence = "MDQAEYQAKIQ [DHX58_Y518_R523Q]"
observed_value = 0.743


q: What value of phosphorylation enrichment on Jak2 (UniProt O60674) does PLGKDYRKAEG [MAP1A_Y1909] have?
a: 0.378

q: How about this sequence: DEIPLYLKGGV [COX7A2_Y44]
a: 0.854

q: Could you do the same for AVNNFYAAKKT [CCDC178_Y422_D420N] , please?
a: 0.566

q: Request: TRNVRYLTLDI [AKR1C2_Y305_N300T]
a: 0.684

q: Do the same for RESSGYLRLAF [MEP1A_Y481] please
a: 2.85

q: Repeat with SEDANYKRVSC [TTC3_Y1288]
a: 1.06

q: How about SFKNKYGMVAQ [APOB_Y276_YF] ?
a: 0.43

q: Continue with PGLSSYGVPGS [FLNB_Y1530_A1534G]
a: 0.355

q: Follow-up entry: "AKIDGYITSYR"
a: 0.558

---

Quick list: phosphorylation enrichment per entry.
# assay.target: FGFR3 (UniProt P22607)
# Sequence (P22607 whole entry, looked up): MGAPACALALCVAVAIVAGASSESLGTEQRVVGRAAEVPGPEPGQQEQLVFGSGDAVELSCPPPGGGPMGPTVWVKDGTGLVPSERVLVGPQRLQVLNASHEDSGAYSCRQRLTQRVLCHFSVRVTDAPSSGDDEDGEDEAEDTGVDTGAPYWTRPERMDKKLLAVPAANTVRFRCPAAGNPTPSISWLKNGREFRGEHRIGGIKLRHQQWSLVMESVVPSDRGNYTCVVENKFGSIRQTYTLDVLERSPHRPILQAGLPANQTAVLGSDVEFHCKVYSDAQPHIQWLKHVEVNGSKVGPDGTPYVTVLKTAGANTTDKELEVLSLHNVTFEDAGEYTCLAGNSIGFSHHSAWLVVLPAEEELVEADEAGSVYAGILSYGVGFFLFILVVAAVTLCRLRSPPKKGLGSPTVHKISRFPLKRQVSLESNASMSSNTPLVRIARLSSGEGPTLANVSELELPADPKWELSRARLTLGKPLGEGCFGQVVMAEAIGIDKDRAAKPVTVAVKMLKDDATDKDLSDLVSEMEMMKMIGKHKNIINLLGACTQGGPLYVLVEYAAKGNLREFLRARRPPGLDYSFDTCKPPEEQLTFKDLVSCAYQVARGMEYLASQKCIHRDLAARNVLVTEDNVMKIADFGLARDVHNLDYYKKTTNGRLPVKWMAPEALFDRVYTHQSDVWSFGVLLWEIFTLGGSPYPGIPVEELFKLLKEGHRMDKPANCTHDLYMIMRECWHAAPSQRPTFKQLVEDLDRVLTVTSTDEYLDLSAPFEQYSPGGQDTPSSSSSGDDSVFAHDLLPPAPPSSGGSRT
# procedure.details: phosphorylation enrichment, bacterial display (enrichment ratio); higher = better substrate or ligand; peptides without Tyr show the background
Keep it simple and answer with nothing but the number.

[[record]]
monomer_sequence = "KGSLPYNLILD [PKD1L2_Y406]"
measurement_label = "phosphorylation enrichment"
observed_value = 0.616

[[record]]
monomer_sequence = "QSHKVYVQHLL [POR_Y604]"
measurement_label = "phosphorylation enrichment"
observed_value = 0.977

[[record]]
monomer_sequence = "SSMIDYNTLEK [MYOC_Y479_P481T]"
measurement_label = "phosphorylation enrichment"
observed_value = 0.568

[[record]]
monomer_sequence = "RGKDSYETSQL [SPP1_Y225]"
measurement_label = "phosphorylation enrichment"
observed_value = 0.697


q: Which phosphorylation enrichment is listed for MCDKEYFSVHN [MET_Y1234_Y1230C_YF] ?
a: 1.47

q: Follow-up item: TSKLNYLDPRI [TOP1_Y723]
a: 0.585

q: ELAKFYKLHHI [AK7_Y391_N389K_YF] ?
a: 0.531
